- Test system: A2780
- test: Cytotoxicity against human A2780 cells after 72 hrs by MTT assay
- Type: functional, cell-based
- condition description: A2780, 72 h
pIC50: −log10 of the molar value.
reported metric: pIC50

Solved entries:
CO[C@]1(CC[C@@H](C)CO)O[C@H]2C[C@H]3[C@@H]4CC=C5C[C@@H](O[C@@H]6O[C@H](CO)[C@@H](O)[C@H](O[C@@H]7O[C@H](CO)[C@@H](O)[C@H](O)[C@H]7O)[C@H]6O[C@@H]6O[C@@H](C)[C@H](O)[C@@H](O)[C@H]6O)CC[C@]5(C)[C@H]4CC[C@]3(C)[C@H]2[C@@H]1C [ICOGENIN(BETA)]	6.04
C[C@@H]1CC[C@@]2(OC1)O[C@H]1C[C@H]3[C@@H]4CC=C5C[C@@H](O[C@@H]6O[C@H](CO)[C@@H](O)[C@H](O[C@@H]7O[C@@H](C)[C@H](O)[C@@H](O)[C@H]7O)[C@H]6O)CC[C@]5(C)[C@H]4CC[C@]3(C)[C@H]1[C@@H]2C [POLYPHILLIN C]	< 5.00

Continue with the next molecule.
Ask | So what pIC50 did C[C@@H]1CC[C@@]2(OC1)O[C@H]1C[C@H]3[C@@H]4CC=C5C[C@@H](O[C@H]6O[C@H](CO)[C@@H](O)[C@H](O)[C@H]6O[C@@H]6O[C@@H](C)[C@H](O)[C@@H](O)[C@H]6O)CC[C@]5(C)[C@H]4CC[C@]3(C)[C@H]1[C@@H]2C get with A2780?
Reply | < 5.00

----------
Below: a set of entries, each annotated with reported IC50.
- Tested on: HCT-8
- test: Cytotoxicity against human HCT8 cells after 72 hrs by MTT assay
- Type: functional, cell-based
- condition description: HCT-8, 72 h
Hi! Could you send only the number? It should be in µM, unit omitted.

Solved entries:
C[C@@H]1CC[C@@]2(OC1)O[C@H]1C[C@H]3[C@@H]4CC=C5C[C@@H](O[C@@H]6O[C@H](CO)[C@@H](O[C@@H]7O[C@@H](C)[C@H](O)[C@@H](O)[C@H]7O)[C@H](O)[C@H]6O[C@@H]6O[C@@H](C)[C@H](O)[C@@H](O)[C@H]6O)CC[C@]5(C)[C@H]4CC[C@]3(C)[C@H]1[C@@H]2C	0.56
C[C@@H]1CC[C@@]2(OC1)O[C@H]1C[C@H]3[C@@H]4CC=C5C[C@@H](O[C@@H]6O[C@H](CO)[C@@H](O)[C@H](O[C@@H]7O[C@H](CO)[C@@H](O)[C@H](O)[C@H]7O)[C@H]6O[C@@H]6O[C@@H](C)[C@H](O)[C@@H](O)[C@H]6O)CC[C@]5(C)[C@H]4CC[C@]3(C)[C@H]1[C@@H]2C	0.92
Nc1ccn([C@@H]2O[C@H](CO)[C@@H](O)C2(F)F)c(=O)n1	1.74

Ask | So what IC50 did CO[C@]1(CC[C@@H](C)CO)O[C@H]2C[C@H]3[C@@H]4CC=C5C[C@@H](O[C@H]6O[C@H](CO)[C@@H](O)[C@H](O[C@@H]7O[C@H](CO)[C@@H](O)[C@H](O)[C@H]7O)[C@H]6O[C@@H]6O[C@@H](C)[C@H](O)[C@@H](O)[C@H]6O)CC[C@]5(C)[C@H]4CC[C@]3(C)[C@H]2[C@@H]1C get with HCT-8?
Reply | 1.3

----------
- System: HCT-8
- test: Cytotoxicity against human HCT8 cells after 72 hrs by MTT assay
- Type: functional, cell-based
- condition description: HCT-8, 72 h
reported metric: IC50 (nM)
Hi! Could you send only the number? It should be in nM, unit omitted.

Ask | Report IC50 for CO[C@]1(CC[C@@H](C)CO)O[C@H]2C[C@H]3[C@@H]4CC=C5C[C@@H](O[C@@H]6O[C@H](CO)[C@@H](O)[C@H](O)[C@H]6O[C@@H]6O[C@@H](C)[C@H](O)[C@@H](O)[C@H]6O)CC[C@]5(C)[C@H]4CC[C@]3(C)[C@H]2[C@@H]1C please.
Reply | 1020

----------
Below: a set of entries, each annotated with reported IC50.
- Tested on: A2780
- test: Cytotoxicity against human A2780 cells after 72 hrs by MTT assay
- Assay type: functional, cell-based
- condition description: A2780, 72 h
Hi! Could you send only the number? It should be in µM, unit omitted.

C[C@@H]1CC[C@@]2(OC1)O[C@H]1C[C@H]3[C@@H]4CC=C5C[C@@H](O[C@@H]6O[C@H](CO)[C@@H](O)[C@H](O[C@@H]7O[C@H](CO)[C@@H](O)[C@H](O)[C@H]7O)[C@H]6O[C@@H]6O[C@@H](C)[C@H](O)[C@@H](O)[C@H]6O)CC[C@]5(C)[C@H]4CC[C@]3(C)[C@H]1[C@@H]2C	4.3

Continue with the next compound.
Ask | Report IC50 for CO[C@]1(CC[C@@H](C)CO)O[C@H]2C[C@H]3[C@@H]4CC=C5C[C@@H](O[C@H]6O[C@H](CO)[C@@H](O)[C@H](O[C@@H]7O[C@H](CO)[C@@H](O)[C@H](O)[C@H]7O)[C@H]6O[C@@H]6O[C@@H](C)[C@H](O)[C@@H](O)[C@H]6O)CC[C@]5(C)[C@H]4CC[C@]3(C)[C@H]2[C@@H]1C please.
Reply | 7.1

----------
- Test system: HCT-8
- test: Cytotoxicity against human HCT8 cells after 72 hrs by MTT assay
- Assay type: functional, cell-based
- condition description: HCT-8, 72 h
reported metric: IC50
State the value with its unit after it.

Solved entries:
C[C@@H]1CC[C@@]2(OC1)O[C@H]1C[C@H]3[C@@H]4CC=C5C[C@@H](O[C@@H]6O[C@H](CO)[C@@H](O)[C@H](O[C@@H]7O[C@@H](C)[C@H](O)[C@@H](O)[C@H]7O)[C@H]6O)CC[C@]5(C)[C@H]4CC[C@]3(C)[C@H]1[C@@H]2C [POLYPHILLIN C]	4.16 µM
CO[C@]1(CC[C@@H](C)CO)O[C@H]2C[C@H]3[C@@H]4CC=C5C[C@@H](O[C@H]6O[C@H](CO)[C@@H](O)[C@H](O)[C@H]6O[C@@H]6O[C@@H](C)[C@H](O)[C@@H](O)[C@H]6O)CC[C@]5(C)[C@H]4CC[C@]3(C)[C@H]2[C@@H]1C	1.26 µM

Continue with the next compound.
Ask | Report IC50 for CO[C@]1(CC[C@@H](C)CO)O[C@H]2C[C@H]3[C@@H]4CC=C5C[C@@H](O[C@@H]6O[C@H](CO)[C@@H](O)[C@H](O[C@@H]7O[C@H](CO)[C@@H](O)[C@H](O)[C@H]7O)[C@H]6O[C@@H]6O[C@@H](C)[C@H](O)[C@@H](O)[C@H]6O)CC[C@]5(C)[C@H]4CC[C@]3(C)[C@H]2[C@@H]1C [ICOGENIN(BETA)] please.
Reply | 0.93 µM
